assayName: Water solubility
Type: physicochemical
conditionDetails: esters corresponding to the diimide (I) in which R1 =R2 =H, read-out: water solubilities
measurementType: solubility

compound: COC(=O)CN(CCN(CC(N)=O)CC(=O)OC)CC(N)=O [R1=H, R2=H, R3=CH3]
measurementType: solubility
result: > 20 mg/mL

compound: NC(=O)CN(CCN(CC(N)=O)CC(=O)OCCO)CC(=O)OCCO [R1=H, R2=H, R3=CH2 CH2 OH]
measurementType: solubility
result: > 20 mg/mL

---

assayName: Water solubility
Format: physicochemical
conditionDetails: 20° C., pH 7.2, read-out: water solubility

compound: O=C1CN(CCN2CC(=O)NC(=O)C2)CC(=O)N1 [diimide (I) R1=R2=H, 1,2-bis-(3,5-dioxopiperazin-1-yl)ethane, reference compound]
solubility: ~100 µg/mL
